Below: a set of entries, each annotated with reported pKd.
TESTED_ON: Gal-1-g3-L4 (Gal-1-51ENNR54) mutant (Homo sapiens, UniProt P09382, A56R/D55N/DEL52-52/G54N/H53E)
Sequence (P09382 with tags, fused parts or gaps DEL52-52/H53E/G54N/D55N/A56R): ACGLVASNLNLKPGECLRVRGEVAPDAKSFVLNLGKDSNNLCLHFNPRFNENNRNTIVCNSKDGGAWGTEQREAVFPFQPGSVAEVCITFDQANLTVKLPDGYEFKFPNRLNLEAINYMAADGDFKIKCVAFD
METHOD: ITC assay, ligand titrating mutant Gal-1-g3-L4
CONDITION_NOTES: mutant Gal-1-g3-L4, 298 K
pKd field: float, defined as -log10 of concentration (mol/L).

CC(=O)N[C@H]1[C@@H](Oc2ccc([N+](=O)[O-])cc2)O[C@H](CO)[C@H](O)[C@@H]1O[C@@H]1O[C@H](CO)[C@H](O)[C@H](O)[C@H]1O | 3.14

Then this compound:
Q: Given the compound CC(=O)N[C@H]1[C@H](O[C@@H]2[C@H](O[C@]3(C(=O)O)C[C@H](O)[C@@H](NC(C)=O)[C@H]([C@H](O)[C@H](O)CO)O3)[C@@H](O)[C@H](O[C@H]3[C@H](O)[C@@H](O)C(O)O[C@@H]3CO)O[C@@H]2CO)O[C@H](CO)[C@H](O)[C@@H]1O[C@@H]1O[C@H](CO)[C@H](O)[C@H](O)[C@H]1O (some centres unmarked) [GM1, Galβ1-3GalNAcβ1-4[NeuAcα2-3]Galβ1-4Glc] , what is its reported pKd?
Ans: 3.25
